Biological target: T1, recombinant human αvβ8 (human, UniProt P06756 31-992; P26012 43-684)
T1 construct: Soluble recombinant heterodimer used as analyte at 200 nM in BLI
T1 sequence (P06756 31-992 limits assumed, chain 1 of 2): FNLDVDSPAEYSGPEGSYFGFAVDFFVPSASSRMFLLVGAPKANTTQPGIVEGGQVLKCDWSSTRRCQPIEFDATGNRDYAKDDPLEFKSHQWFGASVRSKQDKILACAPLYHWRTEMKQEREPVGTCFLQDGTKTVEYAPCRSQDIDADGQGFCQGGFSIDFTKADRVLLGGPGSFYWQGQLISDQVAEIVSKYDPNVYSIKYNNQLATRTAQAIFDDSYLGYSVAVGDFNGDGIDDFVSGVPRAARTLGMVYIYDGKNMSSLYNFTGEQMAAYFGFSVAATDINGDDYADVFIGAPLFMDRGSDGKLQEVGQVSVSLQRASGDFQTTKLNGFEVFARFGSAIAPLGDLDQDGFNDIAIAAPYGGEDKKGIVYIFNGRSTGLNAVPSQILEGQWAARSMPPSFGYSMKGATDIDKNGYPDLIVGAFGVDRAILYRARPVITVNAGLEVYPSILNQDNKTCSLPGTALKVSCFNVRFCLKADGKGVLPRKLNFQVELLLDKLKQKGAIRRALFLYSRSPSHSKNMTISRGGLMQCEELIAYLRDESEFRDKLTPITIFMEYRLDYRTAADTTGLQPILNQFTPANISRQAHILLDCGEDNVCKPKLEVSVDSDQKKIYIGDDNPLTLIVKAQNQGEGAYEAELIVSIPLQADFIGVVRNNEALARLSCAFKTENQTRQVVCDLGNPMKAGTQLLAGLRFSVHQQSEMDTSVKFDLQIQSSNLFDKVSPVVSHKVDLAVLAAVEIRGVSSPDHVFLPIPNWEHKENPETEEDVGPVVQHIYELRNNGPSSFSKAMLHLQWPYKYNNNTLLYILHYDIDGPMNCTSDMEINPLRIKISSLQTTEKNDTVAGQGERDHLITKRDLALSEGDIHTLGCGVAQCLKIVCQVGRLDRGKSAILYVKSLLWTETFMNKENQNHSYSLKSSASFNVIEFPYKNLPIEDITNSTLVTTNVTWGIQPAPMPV
T1 sequence (P26012 43-684 limits assumed, chain 2 of 2): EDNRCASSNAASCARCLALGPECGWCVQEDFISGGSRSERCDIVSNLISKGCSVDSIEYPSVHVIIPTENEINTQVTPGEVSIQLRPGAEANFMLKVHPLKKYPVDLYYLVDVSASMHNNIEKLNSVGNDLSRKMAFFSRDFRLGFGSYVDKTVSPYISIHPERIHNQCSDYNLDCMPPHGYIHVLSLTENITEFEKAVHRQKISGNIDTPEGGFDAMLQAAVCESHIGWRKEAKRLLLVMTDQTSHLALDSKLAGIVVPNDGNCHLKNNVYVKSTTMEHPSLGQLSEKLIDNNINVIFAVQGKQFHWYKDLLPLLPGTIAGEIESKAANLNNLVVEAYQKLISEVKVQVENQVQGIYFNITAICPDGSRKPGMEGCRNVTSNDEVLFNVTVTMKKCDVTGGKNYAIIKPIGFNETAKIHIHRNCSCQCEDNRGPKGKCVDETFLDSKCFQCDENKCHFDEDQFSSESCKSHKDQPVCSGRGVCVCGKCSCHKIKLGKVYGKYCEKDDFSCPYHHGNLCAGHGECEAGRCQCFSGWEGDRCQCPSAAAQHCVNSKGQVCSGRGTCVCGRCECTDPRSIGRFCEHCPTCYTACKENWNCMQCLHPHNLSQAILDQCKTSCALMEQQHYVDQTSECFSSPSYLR
Experiment: bio-layer interferometry, IgG on anti-human Fab-CH1 tips, αvβ8 200 nM
# Kd per record follows
endpoint-name: Kd (nM)

INSERT INTO measurements (binder, endpoint_name, result_number) VALUES
  ('ADWA16-chimera (antibody, V domains shown, It was captured on anti-human Fab-CH1 tips and detected with anti-human secondary, so it has human constant regions; also called chimeric ADWA-16; chimeric version of the parent ADWA16 murine IgG) VH: QVQLQQSGAELAKPGASMKMSCKASGYTFSSYWIYWVKQRPGQGLEWIGYINPTTGYTEYNQKFRDKATLTADKSSNTAYMQLSSLTSEDSAVYYCATEGGNWEDYWGQGTTLTVSS VL: DIQMTQTTSSLSASLGDRVTISCRASQDISNYLNWYQQKPDGTVKLLIYYTSRLYSGVPSRFSGSGSGTDYSLTISNLEPKDIATYYCQQFSELPRTFGGGTKLEIK', 'Kd', 0.95),
  ('ADWA16-4 (antibody, V domains shown) VH: EVQLVESGGGLVQPGGSLRLSCAVSGYIFSSYWVYWVRQAPGKGLEWVGYINPTTGYTEYADSVKGRFTISRDNSKNTLYLQMNSLRAEDTAVYYCATEGGNWEDYWGQGTLVTVSS VL: DIQMTQSPSSLSASVGDRVTITCRASKDISNYINWYQQKPGKAPKLLIYYTSRLYGGVPSRFSGSGSGTDFTLTISSLQPEDFATYYCQQFSELPRTFGQGTKVEIK', 'Kd', 0.86),
  ('ADWA16-2 (antibody, V domains shown) VH: EVQLVESGGGLVQPGGSLRLSCAVSGYIFSSYWVYWVRQAPGKGLEWVGYINPTTGYTEYADSVKGRFTISRDNSKNTLYLQMNSLRAEDTAVYYCATEGGNWEDYWGQGTLVTVSS VL: DIQMTQSPSSLSASVGDRVTITCRASKDISNYLNWYQQKPGKAPKLLIYYTSRLYSGVPSRFSGSGSGTDFTLTISSLQPEDFATYYCQQFSELPRTFGQGTKVEIK', 'Kd', 2);
